The reader will find reported Phage binding ELISA, Anti-CD28 Fab signal in the presence of CD28 values listed item by item below.
target.entity: T1, anti-CD28 Fab (SEQ ID NOs: 696, 697)
T1 construct: In the phage ELISA the Fab was biotinylated and captured on neutravidin coated plates
assay.summary: phage ELISA; biotinylated anti-CD28 Fab on neutravidin plate, wells pre-incubated with CD28 antigen as competitor, anti-M13 HRP detection
outcome.measure: Phage binding ELISA, Anti-CD28 Fab signal in the presence of CD28

binder	val
YCEGHAPEYIWKCL [Phage-484]	0.07
YCEGHSQENIWKCL [Phage-485]	0.07
YCEGHSPEYILKCL [Phage-478]	0.06
YCAGHMPQYEVKCL (also called Peptide-95) [Phage-474]	0.06
YCEGHAPEYIAKCL [Phage-482]	0.09
YCAGMSTIQLWLKC (also called Peptide-94) [Phage-473]	0.09

meta.source: patent US20260242478A1
